Target: Streptokinase A (Streptococcus pyogenes serotype M1, UniProt P10520)
Experiment: viability-normalized secreted streptokinase activity reduction – plasminogen activation absorbance, OD405, dose response (AID 1914);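 note: secreted streptokinase activity via plasminogen activation per viability signal from cell pellet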
Type: functional, Streptococcus pyogenes M1 GAS
Calls of active or inactive are those of the source.
# EC50 listing for each entry below
experimental endpoint: EC50

1) Oc1ccc(/C=N/Nc2nc(-c3ccc(Cl)cc3)cc(C(F)(F)F)n2)cc1
16.3 µM (active)
2) COc1ccc(/C=C/C(=O)NC(=S)N2CCN(c3ccccc3OC)CC2)cc1
> 150 µM (not active)
3) CC1Cc2ccccc2N1C(=S)NC(=O)c1ccc(Cl)cc1Cl (stereo not given)
> 150 µM (not active)
4) CC(C)OC(=O)c1cccnc1N1CCN(c2cccc(Cl)c2)CC1
19.3 µM (active)
5) C/C(=N\NC(=O)c1cc2ccccc2cc1O)c1ccc2c(c1)OCO2
6.65 µM (active)
6) CC(/C=C1\SC(=O)N(CC(=O)Nc2ccc(O)cc2)C1=O)=C\c1ccccc1
> 150 µM (not active)
7) O=C(Oc1cccc(/C=N/Nc2nc(Nc3ccccc3)nc(N3CCOCC3)n2)c1)c1ccco1
> 150 µM (not active)
8) CCOC(=O)c1cccnc1SCC(=O)NC(C)CC (stereo not given)
> 150 µM (not active)
9) O=C(Cc1cccs1)Nc1cccc(-c2nc3cc4ccccc4cc3[nH]2)c1
> 150 µM (not active)
10) NNC(=O)c1ccc(OCC2CC(c3ccc(Cl)cc3)=NO2)cc1 (stereo not given)
> 150 µM (not active)

----------
Target: Neuropeptide Y receptor type 1 (Homo sapiens, UniProt P25929);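 note: HEK293 cells with a CNG channel challenged with NPY then isoproterenol; potency as antagonist that reverses NPY suppression of cAMP signal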
Sequence (P25929 whole entry): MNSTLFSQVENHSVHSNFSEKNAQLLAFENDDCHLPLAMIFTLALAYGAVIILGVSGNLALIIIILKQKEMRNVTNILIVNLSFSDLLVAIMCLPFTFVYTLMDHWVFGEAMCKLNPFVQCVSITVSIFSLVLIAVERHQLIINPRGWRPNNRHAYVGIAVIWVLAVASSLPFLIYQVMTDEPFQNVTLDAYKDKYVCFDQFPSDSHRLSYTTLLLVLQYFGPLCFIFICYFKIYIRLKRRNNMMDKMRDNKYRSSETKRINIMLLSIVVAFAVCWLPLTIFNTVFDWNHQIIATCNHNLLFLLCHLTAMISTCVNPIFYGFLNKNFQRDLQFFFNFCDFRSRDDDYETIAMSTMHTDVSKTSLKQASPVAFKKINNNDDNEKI
Format: functional
Activity calls are given as the source filed them.
Below, each of the molecules is paired with its reported IC50 value.
experimental endpoint: IC50

1) CCOc1ccc2nc(NC(=O)CS(=O)(=O)c3ccc(C)cc3)sc2c1
> 12 µM (not active)
2) Clc1ccc(C2=Nn3c(nnc3-c3[nH]nc4c3CCC4)SC2)cc1Cl
9.8 µM (active)
3) Cc1ccc(OCCCCN(C)Cc2ccccc2)c(Br)c1
8.33 µM (active)
4) O=C(CSCc1c(Cl)cccc1Cl)Nc1ccccc1-c1ccccc1
5.69 µM (active)

----------
Measured Ki, listed per entry.
Molecular target: Dual specificity protein kinase CLK4 (Homo sapiens, UniProt Q9HAZ1)
Sequence (Q9HAZ1 whole entry): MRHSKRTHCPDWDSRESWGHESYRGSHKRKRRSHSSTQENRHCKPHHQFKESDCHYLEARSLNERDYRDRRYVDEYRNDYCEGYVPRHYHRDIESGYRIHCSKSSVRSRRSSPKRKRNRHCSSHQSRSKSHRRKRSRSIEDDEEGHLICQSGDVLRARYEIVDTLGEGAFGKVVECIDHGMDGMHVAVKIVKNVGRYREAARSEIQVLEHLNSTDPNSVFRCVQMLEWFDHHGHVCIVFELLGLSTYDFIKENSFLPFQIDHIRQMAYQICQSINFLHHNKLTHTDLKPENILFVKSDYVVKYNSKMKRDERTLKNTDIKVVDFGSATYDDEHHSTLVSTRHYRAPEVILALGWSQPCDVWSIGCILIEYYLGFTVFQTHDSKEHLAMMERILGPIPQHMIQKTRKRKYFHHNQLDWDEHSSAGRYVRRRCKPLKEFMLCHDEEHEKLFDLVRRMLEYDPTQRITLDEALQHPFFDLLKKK
Format: functional
Activity calls are given as the source filed them.
experimental endpoint: Ki

1) Cc1ccc(Nc2nccc(Nc3ccccc3C(=O)O)n2)cc1F
0.0794 µM (active)
2) Nc1n[nH]c2ccc(-c3cc(Cc4ccccc4)no3)cc12
0.01 µM (active)
3) COc1nc(N)c(C#N)c(-c2ccc(Cl)cc2Cl)c1C#N
7.94 µM (active)
4) O=C1CC(c2ccccc2)Cc2[nH]c3cc(Cl)ccc3c(=O)c21 (centres undefined)
3.98 µM (active)

----------
Reported values: AC50 for Cytochrome P450 2C9 (Homo sapiens), one per item.
experimental endpoint: AC50

1) CO[C@H]1COC(=O)C/C=C\[C@@H](C)COC(=O)[C@H]2CCCN2C(=O)C/C=C\[C@H]1C
inconclusive
2) CCCCN=C(S)NNC(=O)c1csc2c1CCC(C)C2 (stereo unspecified)
inconclusive
3) CN1C2CCC1/C(=C\c1ccccc1)C(=O)/C2=C\c1ccccc1
inconclusive
4) CC[C@@H](c1ccccc1)n1c(=O)n2n(c1=O)[C@H]1[C@H](O)[C@H]3O[C@@H]3/C(=N/OC/C=C(\C)CCC=C(C)C)[C@@H]1CC2
inconclusive
5) Cc1[nH]c2ccc(O)cc2c1CCN
39.8 µM (inconclusive)
6) Cc1ccc(/C=N/NC(=O)CSc2nc3ccccc3n2C)s1
inconclusive

----------
Reported IC50 values are given for each entry in this list.
Molecular target: Protein skinhead-1 (Caenorhabditis elegans, UniProt P34707)
Sequence (P34707 whole entry): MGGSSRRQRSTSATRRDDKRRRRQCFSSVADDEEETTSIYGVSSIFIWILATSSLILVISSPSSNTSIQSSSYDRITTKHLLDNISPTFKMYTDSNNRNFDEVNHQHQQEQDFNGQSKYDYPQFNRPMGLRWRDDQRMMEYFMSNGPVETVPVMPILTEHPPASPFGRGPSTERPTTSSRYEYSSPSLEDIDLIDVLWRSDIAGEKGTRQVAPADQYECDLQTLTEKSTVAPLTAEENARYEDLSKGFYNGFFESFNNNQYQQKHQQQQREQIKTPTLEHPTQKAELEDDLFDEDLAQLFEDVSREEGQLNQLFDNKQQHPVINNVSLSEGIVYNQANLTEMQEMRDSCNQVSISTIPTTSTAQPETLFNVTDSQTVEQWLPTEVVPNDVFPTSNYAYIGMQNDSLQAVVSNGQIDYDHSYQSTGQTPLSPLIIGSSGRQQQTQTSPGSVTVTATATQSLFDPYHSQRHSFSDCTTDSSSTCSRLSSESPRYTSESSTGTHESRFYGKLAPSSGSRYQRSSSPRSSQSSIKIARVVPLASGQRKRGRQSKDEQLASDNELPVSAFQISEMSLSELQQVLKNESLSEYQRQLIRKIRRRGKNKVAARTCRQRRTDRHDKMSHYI
Type: functional
The source made the active and inactive calls.
experimental endpoint: IC50

1. O=C(c1cccnc1)C1Cc2ccccc2C1=O (stereo unspecified)
> 100 µM (inactive)
2. Cc1ccc(NC(=O)CSCc2cc(=O)n3ccsc3n2)cc1
> 100 µM (inactive)
3. Cc1ccc(C(=O)Nc2ncc([N+](=O)[O-])s2)cc1
> 100 µM (inactive)
4. COC(=O)c1ccc(Nc2cc(C)nc3ncnn23)cc1
> 100 µM (inactive)
5. O=C(NNc1c2ccccc2nc2ccccc12)c1ccc(Cl)cc1
> 100 µM (inactive)
6. Clc1ccc(OCCCCCN2CCOCC2)cc1
53.9 µM (inactive)

----------
# reported EC50; entries follow
Biological target: UniProtKB P10520
Sequence (P10520 whole entry): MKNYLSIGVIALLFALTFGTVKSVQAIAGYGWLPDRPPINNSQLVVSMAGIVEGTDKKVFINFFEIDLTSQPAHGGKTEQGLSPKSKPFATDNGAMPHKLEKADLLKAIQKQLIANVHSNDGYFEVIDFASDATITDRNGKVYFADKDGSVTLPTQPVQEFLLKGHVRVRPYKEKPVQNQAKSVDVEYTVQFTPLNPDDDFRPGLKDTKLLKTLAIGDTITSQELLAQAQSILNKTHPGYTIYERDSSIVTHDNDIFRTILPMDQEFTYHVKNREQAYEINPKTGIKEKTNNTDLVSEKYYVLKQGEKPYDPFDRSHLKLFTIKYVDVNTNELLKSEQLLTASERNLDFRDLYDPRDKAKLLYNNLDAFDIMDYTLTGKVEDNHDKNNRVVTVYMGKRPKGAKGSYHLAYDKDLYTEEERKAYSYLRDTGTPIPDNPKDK
Test: viability-normalized secreted streptokinase activity reduction – plasminogen activation absorbance, OD405, dose response (AID 1914)
Format: functional, Streptococcus pyogenes M1 GAS
Calls of active or inactive are those of the source.
experimental endpoint: EC50

1) COc1ccc(/C=C/C(=O)NC(=S)NNC(=O)Cc2cccs2)cc1
> 150 µM (not active)
2) CC1CCN(C(=O)N2c3ccccc3Sc3ccccc32)CC1
> 150 µM (not active)
3) CC1=C(C(=O)Nc2ccc([N+](=O)[O-])cc2)C(c2cccc(C(F)(F)F)c2)N=C(S)N1c1ccccc1 (centres undefined)
18.8 µM (active)
4) CSC1=NSC2=NC(=O)/C(=C\c3c[nH]c4ccccc34)C(=N)N12
> 150 µM (not active)

----------
Target: Serine/threonine-protein kinase pim-1 (Homo sapiens)
Sequence (P11309 whole entry): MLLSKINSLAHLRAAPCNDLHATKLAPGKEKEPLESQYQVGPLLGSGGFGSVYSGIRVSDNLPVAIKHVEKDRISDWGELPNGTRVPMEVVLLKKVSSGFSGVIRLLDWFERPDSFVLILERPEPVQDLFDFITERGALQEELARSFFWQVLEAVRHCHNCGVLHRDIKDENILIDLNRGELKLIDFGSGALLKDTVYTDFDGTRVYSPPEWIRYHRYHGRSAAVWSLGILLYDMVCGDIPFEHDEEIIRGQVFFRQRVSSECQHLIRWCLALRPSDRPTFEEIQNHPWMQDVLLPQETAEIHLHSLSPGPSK
Format: functional
Active and inactive are the calls of the source.
Possible outcomes: y = active, n = inactive

1) O=C1CC(c2ccccc2)Cc2[nH]c3cc(Cl)ccc3c(=O)c21 (stereo unspecified)
y
2) Nc1n[nH]c2ccc(-c3cc(Cc4ccccc4)no3)cc12
n
3) Cc1ccc(Nc2nccc(Nc3ccccc3C(=O)O)n2)cc1F
y
4) CN(C)c1ccc(NC(=O)CC2Nc3ccccc3NC2=O)cc1 (stereo unspecified)
n
5) COCCNc1cc(-c2c[nH]c3ncccc23)cc(Cl)n1
y
6) NNc1cc(N2CCOCC2)nc(OCCc2ccccn2)n1
n

----------
Target: Calpain-2 catalytic subunit (Sus scrofa)
Sequence (P43367 whole entry): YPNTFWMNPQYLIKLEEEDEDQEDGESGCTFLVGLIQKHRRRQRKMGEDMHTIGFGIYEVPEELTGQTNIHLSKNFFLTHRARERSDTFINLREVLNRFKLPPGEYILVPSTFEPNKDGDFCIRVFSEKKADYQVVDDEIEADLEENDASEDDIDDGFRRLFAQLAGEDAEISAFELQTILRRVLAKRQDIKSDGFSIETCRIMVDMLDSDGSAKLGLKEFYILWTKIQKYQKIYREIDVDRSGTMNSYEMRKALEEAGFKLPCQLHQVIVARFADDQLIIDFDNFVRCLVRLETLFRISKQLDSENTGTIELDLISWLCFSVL
Experiment: m-calpain protease blockers, concentration series – biochemical, fluorogenic peptide substrate, dose response (AID 1420)
Assay type: functional
experimental endpoint: IC50

1) CC(=O)c1c(S)nc(-c2ccccc2)nc1N1CCCC1
> 50 µM (not active)
2) O=C(c1ccccc1)c1cn(CC(=O)N2CCCc3ccccc32)c2ccccc12
< 0.4 µM (not active)
3) Cc1[nH]n(-c2ccc(C(=O)O)cc2)c(=O)c1CCO
> 50 µM (not active)
4) O=[N+]([O-])c1cccc(-c2nc3ccccc3s/c2=N/O)c1
22 µM (not active)
5) Cc1ccc(OCc2nnc(SCC(=O)c3cccc([N+](=O)[O-])c3)n2C)cc1
4.87 µM (not active)
6) CC(C)(C)C1CCC(C(=O)OCC(=O)N2CCN(C(=O)c3ccco3)CC2)CC1 (stereo unspecified)
29.8 µM (not active)

----------
The entries below come with measured EC50 values attached.
Assay: Luminescence Cell-Based Dose Confirmation HTS to Identify Activators of 5'UTR Stem-Loop Driven Alpha-Synuclein mRNA Translation in H4 Neuroglioblastoma Cells. [Related pubchem assays: 1829 (Project Summary), 1814 (Primary HTS)]
Type: functional
Calls of active or inactive are those of the source.
experimental endpoint: EC50

1) N#CC(=C1SC=CS1)c1nc(-c2ccccc2)cs1
0.204 µM (active)
2) C=CCSc1ncc(-c2ccccc2)cn1
25.3 µM (active)
3) O=C(CN1C(=O)NC2(CCCCCC2)C1=O)c1ccc2c(c1)OCCO2
4.64 µM (active)
4) Cc1nn(-c2ccccc2)c(Cl)c1/C=N\NC(=O)c1cnccn1
23.6 µM (active)
5) COc1ccc(/C=C/C(=O)NC(=S)N2CCN(c3ccccc3OC)CC2)cc1
1.67 µM (active)
6) Cc1ccc(S(=O)(=O)N/N=C2/CC(c3ccccc3)Oc3ccccc32)cc1[N+](=O)[O-] (stereo unspecified)
15.9 µM (active)
